- Target: TYK2 (JH2domain-pseudokinase) (Homo sapiens, UniProt P29597)
- Construct: TYK2 (JH2domain-pseudokinase)-tagged T7 phage strains were prepared in an E. coli host derived from the BL21 strain
- Sequence (P29597 589-875 limits assumed): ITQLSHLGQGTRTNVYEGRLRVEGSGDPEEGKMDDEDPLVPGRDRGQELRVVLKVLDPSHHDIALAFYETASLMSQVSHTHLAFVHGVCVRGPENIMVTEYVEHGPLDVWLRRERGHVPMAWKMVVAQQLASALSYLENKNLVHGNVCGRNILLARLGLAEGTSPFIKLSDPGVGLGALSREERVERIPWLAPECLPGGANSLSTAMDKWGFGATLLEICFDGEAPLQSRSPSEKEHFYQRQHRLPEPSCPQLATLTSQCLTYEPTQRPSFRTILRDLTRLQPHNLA
- Test description: TYK2 JH2 domain binding assay (KINOMEscan)
pKd: −log10 of the molar value.
The following compounds are listed with their measured pKd values.

Past entries and their recorded results:
>>> print(df.to_string())
                                   compound                                    target  measurement_kind  endpoint_value
0  COc1c(Nc2cc(Nc3cc(C)nc(C)n3)ncn2)cccc1-c1cc(C(F)(F)F)nn1C  TYK2 (JH2domain-pseudokinase) (Homo sapiens, UniProt P29597)               pKd    8.00 to 9.00
1  Cc1cc(Nc2cc(Nc3ccccc3C(C)S(C)(=O)=O)ncn2)nc(C)n1 (stereo not shown)  TYK2 (JH2domain-pseudokinase) (Homo sapiens, UniProt P29597)               pKd    8.00 to 9.00
2  COCc1ccc(Nc2cc(Nc3cc(C)nc(C)n3)ncn2)c(N(C)S(C)(=O)=O)c1  TYK2 (JH2domain-pseudokinase) (Homo sapiens, UniProt P29597)               pKd          > 9.70

Query :: Give recorded pKd. CN=S(C)(=O)c1cc(-c2cnn(C)c2C)cnc1Nc1cc(Nc2cc(C)nc(C)n2)ncn1 (stereo not shown)
Result :: > 9.70

These measurements were taken from patent EP4206196A1.
